A collection of binders and their measured Top (best-fit)
Molecular target: T1, human TIGIT over-expressed on cells (human, UniProt Q495A1 22-244)
T1 construct: also called CHO-K1/human TIGIT cells; CHO cells expressing human TIGIT
T1 sequence: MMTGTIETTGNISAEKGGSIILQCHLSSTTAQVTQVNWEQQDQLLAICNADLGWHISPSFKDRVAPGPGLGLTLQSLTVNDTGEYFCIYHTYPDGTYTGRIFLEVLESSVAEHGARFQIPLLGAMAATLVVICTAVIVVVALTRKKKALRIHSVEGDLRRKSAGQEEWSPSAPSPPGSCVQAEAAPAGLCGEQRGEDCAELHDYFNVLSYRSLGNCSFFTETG
Assay: competition FACS, CHO cells expressing human TIGIT; competitor PVR recombinant protein
Output: the number by itself.

Q: Please give the measured Top (best-fit) for this binder: 8F2D8E7 (antibody, V domains shown, Mouse monoclonal antibody; also called mouse anti-human TIGIT monoclonal antibody 8F2D8E7) VH: QVQLQQSGAELVKPGASVKLSCKTSGYTFTSYWIQWIKQRPGQGLGWIGEIFPGTGTTYYNEKFKGKATLTIDTSSSTAYMQLSSLTSEDSAVYSCARSRDGKVVDYWGQGTSVTVSS VL: DVQMTQTTSSLSASLGDRVTISCRASQDISNFLNWYQQRPDGTVKLLIYYTSKLHSGVPSRFSGSGSGTDYSLTIRNLEKEDIATYFCQQGNTPPYTFGGGTKLEIK
Ans: 131

Q: Please give the measured Top (best-fit) for this binder: 139E2C2D2 (antibody, V domains shown, Mouse monoclonal antibody; also called mouse anti-human TIGIT monoclonal antibody 139E2C2D2) VH: EVQLVESGGDLVKPGGSLKLSCAASGFTFSSYGMSWVRQTPDKRLEWVAIISSGGNYTYYPDSVKGRFTISRDNAKNTLYLQMSSLKSEDTAMYYCARQIHYFFAMDYWGQGTSVTVSS VL: DIQMTQSPASLSVSVGETVTITCRASENIYSNLAWYQQKQGKSPQLLVYAATNLADGAPSRFSGSRSGTQYSLKINSLQSEDFGSYYCQHFWGTAYTFGGGTKLEIK
Ans: 73.8
